This collection of values is drawn from patent US20070117743A1.

# Tested on: SK-BR-3
# test method notes: SRB colorimetric assay of cell growth and viability, SK-BR-3
# Type: cell-based, human
# conditions: 48 hours exposure
Where a SMILES comes first, the peptide text is derived from it. Bridges are numbered along the chain shown (N, C = ends). [ ]: non-standard residue; d: D form. The star is where a group is joined. d(aIle) = CC[C@H](C)[C@@H](N)C(=O)O; d(aThr) = C[C@@H](O)[C@@H](N)C(=O)O; Hexanoyl(5-Me) = CC(C)CCCC(=O)*; Orn = NCCC[C@H](N)C(=O)O; Dhb = C/C=C(\N)C(=O)O; Aib = CC(C)(N)C(=O)O
In this section, each of the compounds is paired with its reported TGI SK-BR-3.
Respond with the bare value in Molar.

These recorded examples may help you get a feel for the data.
C/C=C1\NC(=O)[C@H](Cc2ccccc2)NC(=O)[C@@H](C(C)C)NC(=O)[C@@H]([C@@H](C)CC)NC(=O)[C@H](NC(=O)[C@H](NC(=O)[C@H](CCCN)NC(=O)[C@H]2CCCN2C(=O)[C@H](NC(=O)[C@H](CCCN)NC(=O)[C@@H](NC(=O)[C@H](NC(=O)CCCC(C)C)C(C)C)[C@@H](C)O)C(C)C)[C@@H](C)CC)[C@@H](C)OC(=O)[C@H](C(C)C)NC1=O [Compound 49, [Orn^11]-KF] ({Hexanoyl(5-Me)}-[dV]T[Orn][dV][dP][Orn][d(aIle)][d(aThr)][d(aIle)][dV]F[Dhb]V; ester 8-C) :: 5.57E−06
CC[C@H](C)[C@@H](NC(=O)[C@H](CCCN)NC(=O)[C@H]1CCCN1C(=O)[C@H](NC(=O)[C@@H](NC(=O)[C@@H](NC(=O)[C@H](NC(=O)CCCC(C)C)C(C)C)[C@@H](C)O)C(C)C)C(C)C)C(=O)N[C@H]1C(=O)N[C@H]([C@@H](C)CC)C(=O)N[C@H](C(C)C)C(=O)N[C@@H](Cc2ccccc2)C(=O)NCC(=O)N[C@@H](C(C)C)C(=O)O[C@@H]1C [Compound 65, [Gly^2]-KF] ({Hexanoyl(5-Me)}-[dV]TV[dV][dP][Orn][d(aIle)][d(aThr)][d(aIle)][dV]FGV; ester 8-C) :: 2.21E−06
CC[C@H](C)[C@@H](NC(=O)[C@H](CCCN)NC(=O)[C@H]1CCCN1C(=O)[C@H](NC(=O)[C@@H](NC(=O)[C@@H](NC(=O)[C@H](NC(=O)CCCC(C)C)C(C)C)[C@@H](C)O)C(C)C)C(C)C)C(=O)N[C@H]1C(=O)N[C@H]([C@@H](C)CC)C(=O)N[C@H](C(C)C)C(=O)N[C@@H](Cc2ccccc2)C(=O)NC(C)(C)C(=O)N[C@@H](C(C)C)C(=O)O[C@@H]1C [Compound 66, [Aib^2]-KF] ({Hexanoyl(5-Me)}-[dV]TV[dV][dP][Orn][d(aIle)][d(aThr)][d(aIle)][dV]F[Aib]V; ester 8-C) :: 2.67E−06
C/C=C1\NC(=O)[C@H](Cc2ccccc2)NC(=O)[C@@H](C(C)C)NC(=O)[C@@H]([C@@H](C)CC)NC(=O)[C@H](NC(=O)[C@H](NC(=O)[C@H](CCCN)NC(=O)[C@H]2CCCN2C(=O)[C@H](NC(=O)[C@@H](NC(=O)[C@@H](NC(=O)[C@H](NC(=O)CCCC(C)C)C(C)C)C(C)C)C(C)C)C(C)C)[C@@H](C)CC)[C@@H](C)OC(=O)[C@H](C(C)C)NC1=O [Compound 6, [Val^12]-KF] ({Hexanoyl(5-Me)}-[dV]VV[dV][dP][Orn][d(aIle)][d(aThr)][d(aIle)][dV]F[Dhb]V; ester 8-C) :: 2.22E−07
C/C=C1\NC(=O)[C@H](Cc2ccccc2)NC(=O)[C@@H](C(C)C)NC(=O)[C@@H]([C@@H](C)CC)NC(=O)[C@H](NC(=O)[C@H](NC(=O)[C@H](CCCCN)NC(=O)[C@H]2CCCN2C(=O)[C@H](NC(=O)[C@@H](NC(=O)[C@@H](NC(=O)[C@H](NC(=O)CC[C@@H](C)CC)C(C)C)[C@@H](C)O)C(C)C)C(C)C)[C@@H](C)CC)[C@@H](C)OC(=O)[C@H](C(C)C)NC1=O [Compound 30, [Lys^8, (4S)-MeHex^14]-KF] :: 3.04E−07
C/C=C1\NC(=O)[C@H](Cc2ccccc2)NC(=O)[C@@H](C(C)C)NC(=O)[C@@H]([C@@H](C)CC)NC(=O)[C@H](NC(=O)[C@H](NC(=O)[C@H](CCCN)NC(=O)[C@H]2CCCN2C(=O)[C@H](NC(=O)[C@@H](NC(=O)[C@@H](NC(=O)[C@H](NC(=O)CC[C@H](C)CC)C(C)C)[C@@H](C)O)C(C)C)C(C)C)[C@@H](C)CC)[C@@H](C)OC(=O)[C@H](C(C)C)NC1=O [Compound 16, [(4R)-MeHex^14]-KF] :: 2.20E−06
C/C=C1\NC(=O)[C@H](Cc2ccccc2)NC(=O)[C@@H](C(C)C)NC(=O)[C@@H]([C@@H](C)CC)NC(=O)[C@H](NC(=O)[C@H](NC(=O)[C@H](CCCN)NC(=O)[C@H]2CCCN2C(=O)[C@H](NC(=O)[C@@H](NC(=O)[C@@H](NC(=O)[C@H](NC(=O)c2ccccc2)C(C)C)[C@@H](C)O)C(C)C)C(C)C)[C@@H](C)CC)[C@@H](C)OC(=O)[C@H](C(C)C)NC1=O [Compound 20, [Bza^14]-KF] :: 1.16E−06

// below: TGI SK-BR-3 requested for another compound
Q: Fill in: TGI SK-BR-3 of C/C=C1\NC(=O)[C@H](Cc2ccccc2)NC(=O)[C@@H](C(C)C)NC(=O)[C@@H]([C@@H](C)CC)NC(=O)[C@H](NC(=O)[C@H](NC(=O)[C@H](CCCN)NC(=O)[C@H]2CCCN2C(=O)[C@H](NC(=O)[C@H](C)NC(=O)[C@@H](NC(=O)[C@H](NC(=O)CCCC(C)C)C(C)C)[C@@H](C)O)C(C)C)[C@@H](C)CC)[C@@H](C)OC(=O)[C@H](C(C)C)NC1=O [Compound 44, [Ala^11]-KF] ({Hexanoyl(5-Me)}-[dV]TA[dV][dP][Orn][d(aIle)][d(aThr)][d(aIle)][dV]F[Dhb]V; ester 8-C) is ___
Ans: 2.52E−06
